Every entry's value here was drawn from ChEMBL document CHEMBL4265931.

Test: Displacement of [3H]-ifenprodil from GluN1a/GluN2B (unknown origin) expressed in mouse L(tk-) cell membranes after 120 mins by scintillation counting analysis
Design: species or system Homo sapiens
Each entry below lists one item and its recorded pKi value.
Note: pKi values are expressed as the negative base-10 logarithm of concentration in M.

Answered examples (5):
[[record]]
entrysmiles = "Cl.O=C(CCN1CCC(Cc2ccccc2)CC1)c1ccccc1"
measvalue = 7.41

[[record]]
entrysmiles = "Cl.O=C(CCCN1CCC(Cc2ccccc2)CC1)c1ccccc1"
measvalue = 7.41

[[record]]
entrysmiles = "COc1ccc2cc(C(=O)CCCN3CCC(Cc4ccccc4)CC3)ccc2c1"
measvalue = 7.70

[[record]]
entrysmiles = "COc1ccc(C(=O)CCN2CCCCC2)cc1.Cl"
measvalue = 5.77

[[record]]
entrysmiles = "Cl.O=C(CN1CCC(Cc2ccccc2)CC1)c1ccc2ccccc2c1"
measvalue = 6.86


What does the data say about its pKi? Entry: `COc1ccc(C(=O)CN2CCC(Cc3ccccc3)CC2)cc1.Cl`
7.80

Which pKi is reported for this compound? `COc1cccc(C(=O)CN2CCC(Cc3ccccc3)CC2)c1`
7.96

What measured pKi goes with `Cl.O=C(CCCN1CCC(Cc2ccccc2)CC1)c1ccc2ccccc2c1` ?
7.59

====

Reported log10 of Ki values are given for each entry in this list.
Biological target: Sigma intracellular receptor 2 (Rattus norvegicus, UniProt Q5U3Y7)
Sequence (Q5U3Y7 whole entry): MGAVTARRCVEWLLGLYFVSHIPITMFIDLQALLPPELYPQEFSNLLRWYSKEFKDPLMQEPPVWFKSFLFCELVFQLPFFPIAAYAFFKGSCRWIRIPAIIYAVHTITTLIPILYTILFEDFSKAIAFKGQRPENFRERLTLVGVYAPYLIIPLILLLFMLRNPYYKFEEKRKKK
Assay: Displacement of [3H]-DTG from S2R in rat liver membranes after 120 mins by scintillation counting assay
Values reflect log10 of reported Ki (µM).

Reference set, count: 5
[[record]]
entrysmiles = "COc1ccc(C(=O)CN2CCC(Cc3ccccc3)CC2)cc1.Cl"
measvalue = 0.30

[[record]]
entrysmiles = "Cl.O=C(CCCN1CCC(Cc2ccccc2)CC1)c1ccccc1"
measvalue = -1.33

[[record]]
entrysmiles = "COc1ccc(C(=O)CCN2CCCCC2)cc1.Cl"
measvalue = 0.32

[[record]]
entrysmiles = "O=C(CCN1CCC(Cc2ccccc2)CC1)c1ccc2ccccc2c1"
measvalue = 0.79

[[record]]
entrysmiles = "O=C(CN1CCC(Cc2ccccc2)CC1)c1ccccc1"
measvalue = 0.36


Give its log10 of Ki value. Item: `Cl.O=C(CCCN1CCC(Cc2ccccc2)CC1)c1ccc2ccccc2c1`
-1.24

// returns reported log10 of Ki for input `O=C(CCN1CCCCC1)c1ccccc1`
-0.13

Find the recorded log10 of Ki belonging to `COc1ccc(C(=O)CCCN2CCC(Cc3ccccc3)CC2)cc1.Cl` and report it.
-0.95

Can you look up the measured log10 of Ki of `O=C(CCN1CCC(Cc2ccccc2)CC1)c1ccc(-c2ccccc2)cc1` for me?
0.59

If you can, please state the reported log10 of Ki value of `O=C(CCCN1CCC(Cc2ccccc2)CC1)c1ccc(-c2ccccc2)cc1` .
-0.15

====

Ratio Ki values, listed per item
Assay: Selectivity ratio of Ki for S2R in rat liver membranes to Ki for S1R in guinea pig brain cortex membranes
Assay type: cell membranes
Lab note: record the figure alone, no unit after it.

Record excerpt, results attached:
[[record]]
entrysmiles = "COc1ccc(C(=O)CN2CCC(Cc3ccccc3)CC2)cc1.Cl"
measvalue = 74

[[record]]
entrysmiles = "Cl.O=C(CCCN1CCC(Cc2ccccc2)CC1)c1ccccc1"
measvalue = 5.2

[[record]]
entrysmiles = "O=C(CN1CCC(Cc2ccccc2)CC1)c1ccccc1"
measvalue = 30.7

[[record]]
entrysmiles = "COc1ccc(C(=O)CCN2CCCCC2)cc1.Cl"
measvalue = 256

[[record]]
entrysmiles = "COc1ccc2cc(C(=O)CN3CCC(Cc4ccccc4)CC3)ccc2c1"
measvalue = 4.9

[[record]]
entrysmiles = "Cl.O=C(CCN1CCCCC1)c1ccc2ccccc2c1"
measvalue = 81


Record request: Ratio Ki value, item `COc1ccc(C(=O)CCN2CCC(Cc3ccccc3)CC2)cc1.Cl`
218

Which value of Ratio Ki has been reported for `COc1cccc(C(=O)CN2CCC(Cc3ccccc3)CC2)c1` in the records?
11.5

Which Ratio Ki reading was recorded for the compound `O=C(CCN1CCC(Cc2ccccc2)CC1)c1ccc2ccccc2c1` ?
29.4

====

Experiment: in vitro
Conditions: human, SH-SY5Y cells
Description: Cytotoxicity against human SH-SY5Y cells assessed as cell viability at 10 uM after 48 hrs by MTS assay relative to control
assayMetric: viability at 48 h, 10 µM (%)
API: value field is a number in %; no unit string.

Here's what some known entries look like.
[[record]]
entrysmiles = "Cl.O=C(CCN1CCCCC1)c1ccc(-c2ccccc2)cc1"
measvalue = 95.9

[[record]]
entrysmiles = "COc1cc(/C=C/C(=O)CC(=O)/C=C/c2ccc(O)c(OC)c2)ccc1O"
measvalue = 100

[[record]]
entrysmiles = "COc1cccc(C(=O)CCCN2CCC(Cc3ccccc3)CC2)c1.Cl"
measvalue = 94.8

[[record]]
entrysmiles = "Cl.O=C(CCN1CCOCC1)c1ccc(-c2ccccc2)cc1"
measvalue = 100


viability at 48 h, 10 µM for `C[C@H](CCN1CCCCC1)c1ccc(-c2ccccc2)cc1` ?
84

viability at 48 h, 10 µM for `COc1ccc(C(=O)CCN2CCCCC2)cc1.Cl` ?
104

// viability at 48 h, 10 µM lookup, key: `COc1ccc(C(=O)CN2CCC(Cc3ccccc3)CC2)cc1.Cl`
85.5

Query: viability at 48 h, 10 µM; subject: `Cl.O=C(CCCN1CCC(Cc2ccccc2)CC1)c1ccc2ccccc2c1`
77

Fill blank: measured viability at 48 h, 10 µM of the compound `Cl.O=C(CN1CCC(Cc2ccccc2)CC1)c1ccc2ccccc2c1` is ____.
89.5

So what's the measured viability at 48 h, 10 µM for this one? `Cl.O=C(CCN1CCC(Cc2ccccc2)CC1)c1ccccc1`
106

Can you look up the measured viability at 48 h, 10 µM of `Cl.O=C(CCN1CCCCC1)c1ccc2ccccc2c1` for me?
70.3

Can you share its viability at 48 h, 10 µM? I mean this compound: `Cl.O=C(CCN1CCOCC1)c1ccc2ccccc2c1`
79

====

Assay: in vitro
Conditions: human, sh-sy5y
Description: Cytotoxicity against human SH-SY5Y cells assessed as cell viability at 50 uM after 24 hrs by MTS assay relative to control
assayMetric: viability at 24 h, 50 µM (%)
Lab book: enter the figure in %, no units written.

Item under review: COc1cc2c(cc1OC)C(=O)C(CC1CCN(Cc3ccccc3)CC1)C2 (stereo unspecified) [DONEPEZIL] . Reported viability at 24 h, 50 µM?
94.7

====

Assay: in vitro
Conditions: human, sh-sy5y
assayMetric: viability at 24 h, 25 µM (%)
Output spec: scalar in %, unitless text.

Look at this molecule and give its reported viability at 24 h, 25 µM. COc1cc2c(cc1OC)C(=O)C(CC1CCN(Cc3ccccc3)CC1)C2 (stereo unspecified)
99.3

====

Test: in vitro
Settings: human, SH-SY5Y cells
Mark True for viability at 24 h, 50 µM under 70%, False if at or over.

Example entries begin here.
[[record]]
entrysmiles = "COc1ccc(C(=O)CCCN2CCC(Cc3ccccc3)CC2)cc1.Cl"
label = "False"

[[record]]
entrysmiles = "COc1ccc(C(=O)CCN2CCC(Cc3ccccc3)CC2)cc1.Cl"
label = "True"

[[record]]
entrysmiles = "Cl.O=C(CCN1CCCCC1)c1ccc2ccccc2c1"
label = "True"

[[record]]
entrysmiles = "Cl.O=C(CCN1CCC(Cc2ccccc2)CC1)c1ccccc1"
label = "True"

[[record]]
entrysmiles = "Cl.O=C(CCN1CCCCC1)c1ccc(-c2ccccc2)cc1"
label = "True"


Bench note: check whether `COc1ccc(C(=O)CN2CCC(Cc3ccccc3)CC2)cc1.Cl` shows viability at 24 h, 50 µM below 70%
False

# TODO verify viability at 24 h, 50 µM < 70% strictly for this molecule: `Cl.O=C(CCN1CCOCC1)c1ccc(-c2ccccc2)cc1`
False

Given `COc1ccc(C(=O)CCN2CCCCC2)cc1.Cl` , is recorded viability at 24 h, 50 µM strictly lower than 70%?
True

Does `Cl.O=C(CN1CCC(Cc2ccccc2)CC1)c1ccc2ccccc2c1` have viability at 24 h, 50 µM strictly under 70%?
False

In plain terms, does `Cl.O=C(CCCN1CCC(Cc2ccccc2)CC1)c1ccccc1` come in under 70% for viability at 24 h, 50 µM?
False

Please let me know if `COc1cccc(C(=O)CCCN2CCC(Cc3ccccc3)CC2)c1.Cl` shows viability at 24 h, 50 µM below 70%.
False

In plain terms, does `C[C@H](CCN1CCCCC1)c1ccc(-c2ccccc2)cc1` come in under 70% for viability at 24 h, 50 µM?
False

Please let me know if `Cl.O=C(CCCN1CCC(Cc2ccccc2)CC1)c1ccc2ccccc2c1` shows viability at 24 h, 50 µM below 70%.
False

Check if viability at 24 h, 50 µM falls below 70% for `Cl.O=C(CCN1CCOCC1)c1ccc2ccccc2c1` .
True

====

Biological target: Sigma non-opioid intracellular receptor 1 (Cavia porcellus, UniProt Q60492)
Sequence (Q60492 whole entry): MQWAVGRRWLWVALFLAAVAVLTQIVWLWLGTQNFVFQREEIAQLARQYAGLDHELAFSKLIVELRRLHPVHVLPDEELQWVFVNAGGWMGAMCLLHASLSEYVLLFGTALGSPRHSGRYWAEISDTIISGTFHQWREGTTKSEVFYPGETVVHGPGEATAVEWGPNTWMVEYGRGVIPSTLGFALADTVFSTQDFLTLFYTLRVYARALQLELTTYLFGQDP
Set-up: species or system Hartley
Description: Displacement of [3H]DTG from S1R in P2 fraction of Hartley guinea pig whole brain after 90 mins by liquid scintillation counting method
assayMetric: Ki (nM)
Dear colleague, please return just the value in nM, with no unit written.

Report Ki for COc1cc2c(cc1OC)C(=O)C(CC1CCN(Cc3ccccc3)CC1)C2 (stereo unspecified) please.
14.6
